Target: KRAS-G12D (Homo sapiens, UniProt P01116, G12D)
Construct: endogenous in cells; host or cells: A-427 (ATCC), AGS, AsPc-1, Panc 04.03
Sequence (P01116 1-188 isoform P01116-2 G12D): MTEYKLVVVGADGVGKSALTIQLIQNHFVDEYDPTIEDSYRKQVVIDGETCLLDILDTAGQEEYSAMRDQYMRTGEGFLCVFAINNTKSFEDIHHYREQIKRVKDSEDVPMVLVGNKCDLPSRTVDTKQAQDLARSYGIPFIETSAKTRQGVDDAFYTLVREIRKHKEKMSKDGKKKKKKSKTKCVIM
Test: KRAS-G12D degradation assay (Western Blot), AGS cells
Assay type: cell-based
Details: 24 h
Label key: yes (1) means DC50 under 3 nM; no (0) means DC50 of 3 nM or more.

Smiles Input	Label Class
C#Cc1cccc2cc(O)cc(-c3ccc4c(N5CC6CCC(C5)N6)nc(OCC5(CN6CCN(CC7CCC8(CC7)CCN(C(=O)c7ccc(C)c(N9CCC(=O)NC9=O)c7)CC8)CC6)CC5)nc4c3F)c12	yes (1)
C#Cc1cccc2cc(O)cc(-c3ncc4c(N5CC6CCC(C5)N6)nc(OCC5(CN6CCN(CC7CCC8(CC7)CCN(C(=O)c7ccc(C)c(N9CCC(=O)NC9=O)c7)CC8)CC6)CC5)nc4c3F)c12	yes (1)
C#Cc1cccc2cc(O)cc(-c3ncc4c(N5CC6CCC(C5)N6)nc(OCC5(CN6CCN(CC7CCC8(CC7)CCN(C(=O)c7ccc(OC)c(N9CCC(=O)NC9=O)c7)CC8)CC6)CC5)nc4c3F)c12	no (0)
[2H]C([2H])([2H])c1ccc(C(=O)N2CCC3(CCC(CN4CCN(C[C@@H](C)COc5nc(N6CC7CCC(C6)N7)c6cnc(-c7cc(O)cc8ccc(F)c(C#C)c78)c(F)c6n5)CC4)CC3)CC2)cc1N1CCC(=O)NC1=O	no (0)
C#Cc1c(F)ccc2cc(O)cc(-c3ccc4c(N5CC6CCC(C5)N6)nc(OCC5(CN6CCN(CC7CCC8(CC7)CCN(C(=O)c7ccc(OC)c(N9CCC(=O)NC9=O)c7)CC8)CC6)CC5)nc4c3F)c12	no (0)
CCc1c(F)ccc2cc(O)cc(-c3ncc4c(N5CC6CCC(C5)N6)nc(OCC5(CN6CCN(CC7CCC8(CC7)CCN(C(=O)c7ccc(OC)c(N9CCC(=O)NC9=O)c7)CC8)CC6)CC5)nc4c3F)c12	yes (1)
C#Cc1cccc2cc(O)cc(-c3ccc4c(N5CC6CCC(C5)N6)nc(OCC5(CN6CCN(CC7CCC8(CC7)CCN(C(=O)c7ccc(Cl)c(N9CCC(=O)NC9=O)c7)CC8)CC6)CC5)nc4c3F)c12	no (0)
C#Cc1c(F)ccc2cc(O)cc(-c3ncc4c(N5CC6CCC(C5)N6)nc(OCC5(CN6CCN(CC7CCC8(CC7)CCN(C(=O)c7ccc(Cl)c(N9CCC(=O)NC9=O)c7)CC8)CC6)CC5)nc4c3F)c12	no (0)
CCc1c(F)ccc2cc(O)cc(-c3ccc4c(N5CC6CCC(C5)N6)nc(OCC5(CN6CCN(CC7CCC8(CC7)CCN(C(=O)c7ccc(C)c(N9CCC(=O)NC9=O)c7)CC8)CC6)CC5)nc4c3F)c12	no (0)
CCc1cccc2cc(O)cc(-c3ncc4c(N5CC6CCC(C5)N6)nc(OCC5(CN6CCN(CC7CCC8(CC7)CCN(C(=O)c7ccc(C)c(N9CCC(=O)NC9=O)c7)CC8)CC6)CC5)nc4c3F)c12	no (0)
C#Cc1cccc2cc(O)cc(-c3ncc4c(N5CC6CCC(C5)N6)nc(OCC5(CN6CCN(CC7CCC8(CC7)CCN(C(=O)c7ccc(Cl)c(N9CCC(=O)NC9=O)c7)CC8)CC6)CC5)nc4c3F)c12	yes (1)
CCc1cccc2cc(O)cc(-c3ncc4c(N5CC6CCC(C5)N6)nc(OCC5(CN6CCN(CC7CCC8(CC7)CCN(C(=O)c7ccc(Cl)c(N9CCC(=O)NC9=O)c7)CC8)CC6)CC5)nc4c3F)c12	yes (1)
C#Cc1c(F)ccc2cc(O)cc(-c3ccc4c(N5CC6CCC(C5)N6)nc(OCC5(CN6CCN(CC7CCC8(CC7)CCN(C(=O)c7ccc(C)c(N9CCC(=O)NC9=O)c7)CC8)CC6)CC5)nc4c3F)c12	no (0)
CCc1c(F)ccc2cc(O)cc(-c3ccc4c(N5CC6CCC(C5)N6)nc(OCC5(CN6CCN(CC7CCC8(CC7)CCN(C(=O)c7ccc(OC)c(N9CCC(=O)NC9=O)c7)CC8)CC6)CC5)nc4c3F)c12	no (0)
C#Cc1c(F)ccc2cc(O)cc(-c3ncc4c(N5CC6CCC(C5)N6)nc(OC[C@H](C)CN5CCN(CC6CCC7(CC6)CCN(C(=O)c6ccc(OC)c(N8CCC(=O)NC8=O)c6)CC7)CC5)nc4c3F)c12	no (0)
